# tgt: KSP motor domain (Homo sapiens, UniProt P52732)
# Construct: 100 nM KSP motor domain, 50 μg/ml microtubules
# Sequence (P52732 18-359 limits assumed): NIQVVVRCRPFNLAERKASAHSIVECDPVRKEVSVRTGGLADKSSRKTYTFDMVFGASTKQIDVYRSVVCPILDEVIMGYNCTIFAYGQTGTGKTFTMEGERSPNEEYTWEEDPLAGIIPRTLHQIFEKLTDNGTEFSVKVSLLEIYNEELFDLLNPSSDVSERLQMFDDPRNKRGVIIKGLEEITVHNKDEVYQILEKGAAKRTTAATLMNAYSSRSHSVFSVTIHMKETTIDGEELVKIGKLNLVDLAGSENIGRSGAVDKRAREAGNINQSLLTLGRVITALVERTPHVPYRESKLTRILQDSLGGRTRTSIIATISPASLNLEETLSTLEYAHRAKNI
# measurementNotes: KSP ATPase assay (IC50 for KSP activity)
# Type: biochemical

chemSmiles | IC50 for inhibition of KSP
NC(=O)Nc1ccc2[nH]c3ccc(C(F)(F)F)cc3c2c1 | not active
Nc1cccc2c1[nH]c1ccc(C(F)(F)F)cc12 | not active
CS(=O)(=O)Nc1cccc2c1[nH]c1ccc(C(F)(F)F)cc12 | not active
CS(=O)(=O)Nc1ccc2[nH]c3ccc(C(F)(F)F)cc3c2c1 | not active

Every entry's value here was drawn from patent US20090170882A1.
